Overview of reported self-cleavage across a group of variants:
B1: LINE1-full (parent)
chain: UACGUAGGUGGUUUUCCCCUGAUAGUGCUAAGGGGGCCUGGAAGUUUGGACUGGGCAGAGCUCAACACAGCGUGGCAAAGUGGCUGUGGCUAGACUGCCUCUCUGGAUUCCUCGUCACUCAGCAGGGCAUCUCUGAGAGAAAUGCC

Variants of: B1
Assay: self-cleavage, relative activity (ratio to wild type); higher = more cleavage; in vitro, sequencing; the parent is a self-cleaving ribozyme

Illustrative cases are given below, each with its answer.
1. UACGUAGGUGGUUCUCCCCUGAUAGUGCUAAGGGGGCCUGGAAGUUUGGACUGGGCAGAGCUCAUCACAGCGUGGCAAAGUGGCUGUGGCUAGACUGCCUCUCUGGAUUCCUCGUCACUCAGCAGGGCAUCUCUGAGAGAAAUGCC : 0.19
2. UACGUAGGUGGUUUUCCCCUGAUAGUGCUAAGGGGGCCUGGAAGUUUGGACUGGGCAGAGCUCAACACAGCGUGGCAAAGUGGCUGUGGCUAGUCUGCCUCUCUGGAUUCCUCGUCACUCAGCAGGGCAUCUCUGAGGGAAAUGCC : 0.32

Which self-cleavage is reported for this variant? "UACGUAGGUGGUUUUCCCCUGAUAGUGCUAAGGGGGCCUGGAAGUUUGGACUGGGCAGAGCUCAACACAGCGUGGCAAAGUGGCUGUGGCUAGACUGCCUCUCUGGAUUCCUCGUCACUCAACAGGGCAUCUCUGAGGGAAAUGCC"
0.78

Moving on to the next variant: "UACGUAGGUGGUUUUCCCCUGAUAGUGCUAAGGGGGCCCGGAAGUUUGGACUGGGCAGAGCUCAACACAGCGUGGCAAAGUGGCUGUGGCCAGACUGCCUCUCUGGAUUCCUCGUCACUCAGCAGGGCAUCUCUGAGAGAAAUGCC"
0.33

Same question for "UACGUAGGUGGUUUUCCCCUGAUAGUGCUAGGGGGGCCUGGAAGUUUGGACUGGGCAGGGCUCAACACAGCGUGGCAAAGUGGCUGUGGCUAGACUGCCUCUCUGGAUUCCUCGUCACUCAGCAGGGCAUCUCUGAGAGAAAUGCC" please.
0.16

Further, for "UACGUAGGUGGUUUUCCCCUGAUAGUGCUAAGGGGGCCUGGAAGUUUGGACUGGGCAGAGCUCAACACAGCGUGGCAAAGUGGCUGUGGCUAGACAGCCUCUCUGGAUUCCUCGUCACUCAGCAGGGCAUCUCUGUGAGAAAUGCC" ?
0.09

Also need "UACGUAGGUGAUUUUCCCCUGAUAGUGCUAAGGGGGCCUGGAAGUUUGGACUGGGCAGAGCUAAACACAGCGUGGCAAAGUGGCUGUGGCUAGACUGCCUCUCUGGAUUCCUCGUCACUCAGCAGGGCAUCUCUGAGAGAAAUGCC" , thanks.
0.01
